Below: a set of entries, each annotated with reported hIL12RB2/control (ELISA).
Molecular target: T1, biotinylated human recombinant IL-12Rβ2 (produced in-house) (human, UniProt Q99665 24-622, random biotinylated)
T1 construct: Soluble recombinant protein used for panning, ELISA and BLI; also called hIL-12RB2; hIL12RB2
T1 sequence: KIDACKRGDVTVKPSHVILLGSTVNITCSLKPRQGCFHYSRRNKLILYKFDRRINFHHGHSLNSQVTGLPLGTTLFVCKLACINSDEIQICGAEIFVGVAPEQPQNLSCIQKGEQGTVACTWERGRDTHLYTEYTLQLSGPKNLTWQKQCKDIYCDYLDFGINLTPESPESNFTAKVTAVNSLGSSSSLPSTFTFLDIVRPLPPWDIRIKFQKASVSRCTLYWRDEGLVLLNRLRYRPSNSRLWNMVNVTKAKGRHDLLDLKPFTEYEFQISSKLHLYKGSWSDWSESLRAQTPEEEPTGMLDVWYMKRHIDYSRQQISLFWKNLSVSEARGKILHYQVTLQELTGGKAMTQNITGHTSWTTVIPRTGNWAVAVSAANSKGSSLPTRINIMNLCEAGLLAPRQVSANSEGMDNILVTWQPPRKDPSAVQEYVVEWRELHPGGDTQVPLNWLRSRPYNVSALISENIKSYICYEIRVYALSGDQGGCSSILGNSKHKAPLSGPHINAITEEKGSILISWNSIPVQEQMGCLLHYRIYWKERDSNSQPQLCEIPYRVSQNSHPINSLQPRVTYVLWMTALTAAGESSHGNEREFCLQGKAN
Assay: ELISA, periplasmic extract on biotinylated human IL-12Rβ2; signal over streptavidin control well
test readout: hIL12RB2/control (ELISA) (ratio)

binder	test readout	result value
anti-IL-12Rβ2 VHH clone 3CRHS163 (clone ID 20438) (VHH, Tested as periplasmic extract; also called 3CANS142; not shown: C-terminal HA tag) VHH: QVQLQESGGGLVQPGGSLRLSCTASGFAFSTYWMYWIRQSPEKGFEWVSVVNTGGDITYYADSVKGRFTISRDNAKNTLYLQMNSLKPEDTALYYCARDRTTMSYTRTYYRGGQGTQVTVSS	hIL12RB2/control (ELISA)	3.58
anti-IL-12Rβ2 VHH clone 3CAHS41 (clone ID 20394) (VHH, Tested as periplasmic extract; not shown: C-terminal HA tag) VHH: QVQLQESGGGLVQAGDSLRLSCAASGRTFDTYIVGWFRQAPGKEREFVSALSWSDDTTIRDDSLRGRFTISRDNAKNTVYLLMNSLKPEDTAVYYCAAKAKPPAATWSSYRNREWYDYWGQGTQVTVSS	hIL12RB2/control (ELISA)	8.77
